Reported inhibition values for the following compounds.
Target: Glutathione S-transferase omega-1 (Homo sapiens) (UniProt P78417)
Sequence (P78417 whole entry, looked up): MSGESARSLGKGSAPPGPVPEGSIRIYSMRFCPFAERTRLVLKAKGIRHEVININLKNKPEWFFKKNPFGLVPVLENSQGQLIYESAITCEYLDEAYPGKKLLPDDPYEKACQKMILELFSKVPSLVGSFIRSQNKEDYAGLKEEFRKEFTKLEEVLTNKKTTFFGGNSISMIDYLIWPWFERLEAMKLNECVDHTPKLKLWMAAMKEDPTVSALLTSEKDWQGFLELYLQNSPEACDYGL
Experiment: in situ GSTO1 inhibitors in cancer cells, late-stage follow-up, cell-based, MDA-MB-435, in-gel fluorescence (AID 463094)
Details: MDA-MB-435 in situ, competitive ABPP gel fluorescence, 1 h; at 1 µM; stronger effect = higher value
Your answer is read as %, so omit the unit and give the number.

COc1ccc(C(C(=O)NC2CCCCC2)N(C(=O)CCl)c2cccc(Cl)c2)cc1 (centres undefined) ... 100
C#CCN(CCCN(C(=O)CCl)c1ccc([N+](=O)[O-])cc1)C(=O)C(F)(F)F ... 100
COc1ccc(N(C(=O)CCl)C(C(=O)NCCc2ccccc2)c2cccs2)cc1Cl (centres undefined) ... 95

Consider now this further compound.
Observed inhibition on Glutathione S-transferase omega-1 (Homo sapiens) (UniProt P78417) for `C#CCCC(=O)NCCCN(C(=O)CCl)c1ccc([N+](=O)[O-])cc1` , please. 97

----------
Target: Glutathione S-transferase omega-1 (Homo sapiens)
Experiment: in situ GSTO1 inhibitors in cancer cells, late-stage follow-up, cell-based, MDA-MB-435, in-gel fluorescence (AID 463094)
Conditions: MDA-MB-435 in situ, competitive ABPP gel fluorescence, 1 h; at 1 µM; stronger effect = higher value
parameter: inhibition (%)
Reply with just the number (in %).

COc1ccc(C(C(=O)NC2CCCCC2)N(C(=O)CCl)c2ccc(Cl)cc2)cc1 (stereo unspecified) ... 60
CCOC(=O)c1sc(N(Cc2ccccc2)C(=O)CCl)nc1C ... 65
Cc1cccc(CN2CCN(C(=O)CCl)CC2)c1 ... 53
COc1ccc(N(C(=O)CCl)C(C(=O)NC2CCCCC2)c2cccnc2)cc1 (stereo unspecified) ... 95
C#CCNC(=O)C(c1ccc(OC)cc1)N(C(=O)CCl)c1ccc(Cl)cc1 (stereo unspecified) ... 30
O=C(NC1CCCCC1)C(c1cccnc1)N(C(=O)CCl)c1ccc(F)cc1 (stereo unspecified) ... 100
C#CCCCCNC(=O)C(c1ccc(OC)cc1)N(C(=O)CCl)c1cccc(Cl)c1 (stereo unspecified) ... 90
C#CCCCCNC(=O)C(c1cccnc1)N(C(=O)CCl)c1ccc(F)cc1 (stereo unspecified) ... 95
C#CCNC(=O)C(c1ccc(OC)cc1)N(C(=O)CCl)c1cccc(Cl)c1 (stereo unspecified) ... 77
O=C(NC1CCCCC1)C(c1cccnc1)N(C(=O)CCl)c1cccc(Cl)c1 (stereo unspecified) ... 100

The record that follows has no inhibition shown yet.
I would be grateful if you could share the reported inhibition for `O=S(=O)(c1ccc(Cl)cc1)N1CCC2(CC1)CO2` . 17
